Data credit: patent US11679107B2

Target desc: SF3b complexes (Homo sapiens, UniProt O75533+Q7RTV0)
Construct: endogenous in cells; host or cells: Nuclear extracts; A HeLa S3 extract preparation is described for the in vitro splicing assay
Assay method text: Scintillation proximity assay (SPA) with [3H]-labelled pladienolide probe
Assay type: binding
Details: SF3B1 (WT); geometric mean; read-out: SPA-ATS GMean IC50 (nM) SF3B1 (WT)
Documented log10 IC50 across a set of molecules
Scale type: logarithmic (base 10). Underlying IC50 unit: nM.

Molecule: C/C(=C\c1cc(F)cc(N2CCOCC2)c1)[C@H]1OC(=O)C[C@H](O)CC[C@H](C)[C@@H](OC(=O)N2CCN(C)CC2)/C=C/[C@@H]1C
log10 IC50: 0.24
--
Molecule: C/C(=C\c1cc(F)cc(N2CCN(C(=O)c3cn(C)cn3)CC2)c1)[C@H]1OC(=O)C[C@H](O)CC[C@H](C)[C@@H](OC(=O)N2CCN(C)CC2)/C=C/[C@@H]1C
log10 IC50: 0.60
--
Molecule: C/C(=C\c1cc(F)c2c(c1)nnn2CC1CC1)[C@H]1OC(=O)C[C@H](O)CC[C@H](C)[C@@H](OC(=O)N2CCN(C)CC2)/C=C/[C@@H]1C
log10 IC50: 0.64
--
Molecule: C/C(=C\c1cc(F)c2nnn([C@@H]3CCCOC3)c2c1)[C@H]1OC(=O)C[C@H](O)CC[C@H](C)[C@@H](OC(=O)N2CCN(C)CC2)/C=C/[C@@H]1C
log10 IC50: 0.40
--
Molecule: C/C(=C\c1cccc(N2CCNCC2)c1)[C@H]1OC(=O)C[C@H](O)CC[C@H](C)[C@@H](OC(=O)N2CCN(C)CC2)/C=C/[C@@H]1C
log10 IC50: 1.30

I am curious: what log10 IC50 value has been reported for C/C(=C\c1cc(F)cc(N2CCN(C(=O)C3CCOC3)CC2)c1)[C@H]1OC(=O)C[C@H](O)CC[C@H](C)[C@@H](OC(=O)N2CCN(C)CC2)/C=C/[C@@H]1C (some centres unmarked) ?
0.51

I am curious: what log10 IC50 value has been reported for C/C(=C\c1cc(F)cc(F)c1)[C@H]1OC(=O)C[C@H](O)CC[C@H](C)[C@@H](OC(=O)N2CCN(C)CC2)/C=C/[C@@H]1C ?
1.00

====

Test system: Panc 05.04 cells (SF3b K700E mutant)
Assay method text: Cell proliferation and viability, CellTiter-Glo, 72 hours
Assay type: cell-based
Details: 72 h; PANC0504.1; -100% = cidal, 0% = static, 100% = uninhibited growth
Measure name: CTGlo-ATS Mean MinResponse % 72 h PANC0504.1 (%)
Your answer should be a plain number; it is taken to be in %.

Reference set (4 entries):
Compound: C/C(=C\C1=CCCN(C(=O)OC(C)(C)C)C1)[C@H]1OC(=O)C[C@H](O)CC[C@H](C)[C@@H](OC(=O)N2CCN(C)CC2)/C=C/[C@@H]1C [Compound 219]
Target desc: Panc 05.04 cells (SF3b K700E mutant)
Observed: −91.460
//
Compound: C/C(=C\c1cncc(S(=O)(=O)N2CCCC2)c1)[C@H]1OC(=O)C[C@H](O)CC[C@H](C)[C@@H](OC(=O)N2CCN(C)CC2)/C=C/[C@@H]1C [Compound 205]
Target desc: Panc 05.04 cells (SF3b K700E mutant)
Observed: −91.576
//
Compound: C/C(=C\c1cc(F)cc(N2CC[C@H](NS(C)(=O)=O)C2)c1)[C@H]1OC(=O)C[C@H](O)CC[C@H](C)[C@@H](OC(=O)N2CCN(C)CC2)/C=C/[C@@H]1C [Compound 217]
Target desc: Panc 05.04 cells (SF3b K700E mutant)
Observed: −91.288
//
Compound: C/C(=C\c1cccc(COC(=O)N2CCC(O)CC2)c1)[C@H]1OC(=O)C[C@H](O)CC[C@H](C)[C@@H](OC(=O)N2CCN(C)CC2)/C=C/[C@@H]1C [Compound 261]
Target desc: Panc 05.04 cells (SF3b K700E mutant)
Observed: −89.906

Then this compound:
I am curious: what CTGlo-ATS Mean MinResponse % 72 h PANC0504.1 value has been reported for C/C(=C\c1cc(F)cc(NS(=O)(=O)N(C)C)c1)[C@H]1OC(=O)C[C@H](O)CC[C@H](C)[C@@H](OC(=O)N2CCN(C)CC2)/C=C/[C@@H]1C [Compound 248] ?
−92.622
